assay.details: Water solubility was determined
assay.endpoint: solubility (µg/mL)

In [3]: df
Out[3]:
                                   compound  assay_endpoint  recorded_result
0  CSC[S+]([O-])C[C@H](C)NC(=O)/C=C/c1c(C)nc(O)nc1O (stereo not given in full)      solubility            18000
1  CCCCCCCCSC[S+]([O-])C[C@H](CO)NC(=O)/C=C/c1c(C)nc(O)nc1O (stereo not given in full)      solubility               13
2  CCCSC[S+]([O-])C[C@H](CO)NC(=O)/C=C/c1c(C)nc(O)nc1O (stereo not given in full)      solubility             1500
3  CCCCCCC[S+]([O-])C[C@H](CO)NC(=O)/C=C/c1c(C)nc(O)nc1O (stereo not given in full)      solubility              220
4  CCCCSC[S+]([O-])C[C@H](CO)NC(=O)/C=C/c1c(C)nc(O)nc1O (stereo not given in full)      solubility              570
5  CSC[S+]([O-])C[C@H](CO)NC(=O)/C=C/c1c(C)[nH]c(=O)[nH]c1=O (stereo not given in full)      solubility             3800
6  CCCCSC[S+]([O-])C[C@H](C)NC(=O)/C=C/c1c(C)nc(O)nc1O (stereo not given in full)      solubility              940
7  CCCCCC[S+]([O-])C[C@H](CO)NC(=O)/C=C/c1c(C)nc(O)nc1O (stereo not given in full)      solubility              890
8  CCCCCCCCSC[S+]([O-])C[C@H](C)NC(=O)/C=C/c1c(C)nc(O)nc1O (stereo not given in full)      solubility               15
9  CCCCCSC[S+]([O-])C[C@H](CO)NC(=O)/C=C/c1c(C)nc(O)nc1O (stereo not given in full)      solubility              280

* * *

Tested on: Escherichia coli
assay.details: In vitro inhibition of polyuridylic acid dependent polyphenylalanine synthesis using ribosomes from Escherichia coli
Assay type: functional
run.conditions: read-out: ED50 (the source's name)
assay.endpoint: EC50

>>> print(df.to_string())
                                   compound  recorded_result
0  CCCCCCCCSC[S+]([O-])C[C@H](C)NC(=O)/C=C/c1c(C)nc(O)nc1O (stereo partly drawn)           8.5 µM
1  CSC[S+]([O-])C[C@H](CO)NC(=O)/C=C/c1c(C)[nH]c(=O)[nH]c1=O (stereo partly drawn)           8.5 µM
2  Cc1nc(O)nc(O)c1/C=C/C(=O)N[C@@H](CO)C[S+]([O-])CSC(C)(C)C (stereo partly drawn)            31 µM
3  CCCCCC[S+]([O-])C[C@H](CO)NC(=O)/C=C/c1c(C)nc(O)nc1O (stereo partly drawn)          0.75 µM
4  CCCCCCCCSC[S+]([O-])C[C@H](CO)NC(=O)/C=C/c1c(C)nc(O)nc1O (stereo partly drawn)           1.6 µM
5  CCCCSC[S+]([O-])C[C@H](CO)NC(=O)/C=C/c1c(C)nc(O)nc1O (stereo partly drawn)           1.8 µM
6  Cc1nc(O)nc(O)c1/C=C/C(=O)N[C@@H](C)C[S+]([O-])CCl (stereo partly drawn)            86 µM
7  CCCCCSC[S+]([O-])C[C@H](CO)NC(=O)/C=C/c1c(C)nc(O)nc1O (stereo partly drawn)             1 µM

Recorded values, source ChEMBL document CHEMBL1124574.
